Record form. Attribute: cell viability. Fill in for each entry.
Tested on: SEM cells
Assay: cell viability relative to DMSO control; higher = less cytotoxic
Settings: RPMI 5 mM glucose + 10% dialyzed FBS; 48 h; 0.19 µM
A number alone suffices; assume %.

Record for COC1=C(OC)C(=O)C(C/C=C(\C)CC/C=C(\C)CC/C=C(\C)CC/C=C(\C)CC/C=C(\C)CC/C=C(\C)CC/C=C(\C)CC/C=C(\C)CC/C=C(\C)CCC=C(C)C)=C(C)C1=O under target or system SEM cells: cell viability reported as 124

Record c1cc(OCCN2CCCCC2)cc(-c2n[nH]c3ccc(-c4nc[nH]n4)cc23)c1 ; system SEM cells; cell viability = 107

Reported SEM cells cell viability for item CN(C)CCC=C1C2=C(C=CC=C2)\C=C/C3=C1C=CC=C3 was 128

Entry Cc1c(OCC(F)(F)F)ccnc1C[S+]([O-])c1nc2ccccc2[nH]1 (centres undefined) : cell viability on SEM cells = 122
